B1: FBXO3 (parent)
chain: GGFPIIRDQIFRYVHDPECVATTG

variants of: B1; assay: protein stability index of a GFP-peptide fusion (GPS, HEK-293T) (PSI 1-6); higher = more stable; conditions: c terminus: a fixed tail appended;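 note: lentivirally expressed fusions sorted by FACS into six bins by GFP to DsRed ratio, PSI derived from sequencing read proportions per bin multiplied by bin number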
Readout Name: protein stability index

INSERT INTO results (variant_annotation, readout_name, recorded_result) VALUES
  ('V14L', 'protein stability index', 2.28),
  ('E18T', 'protein stability index', 1.98),
  ('G1F', 'protein stability index', 1.55),
  ('R12H', 'protein stability index', 2.69),
  ('I10F', 'protein stability index', 2.13),
  ('I6K', 'protein stability index', 2.52),
  ('G2T', 'protein stability index', 2.19),
  ('F11Q', 'protein stability index', 3.1),
  ('A21T', 'protein stability index', 1.69),
  ('R7E', 'protein stability index', 3.79),
  ('I6M', 'protein stability index', 1.46),
  ('F3I', 'protein stability index', 2.29),
  ('H15S', 'protein stability index', 1.5),
  ('R12I', 'protein stability index', 2.63),
  ('V14A', 'protein stability index', 2.12),
  ('P4H', 'protein stability index', 2.02),
  ('I10A', 'protein stability index', 2.38),
  ('R12L', 'protein stability index', 1.64),
  ('V14P', 'protein stability index', 3.32),
  ('I10C', 'protein stability index', 2.19),
  ('D16N', 'protein stability index', 1.8),
  ('D8I', 'protein stability index', 3.17),
  ('G1M', 'protein stability index', 1.64),
  ('I6Q', 'protein stability index', 2.69),
  ('Y13F', 'protein stability index', 1.75),
  ('C19S', 'protein stability index', 1.9),
  ('V14S', 'protein stability index', 2.74),
  ('P17Q', 'protein stability index', 1.97),
  ('T22Y', 'protein stability index', 1.88),
  ('V20C', 'protein stability index', 2.84),
  ('A21N', 'protein stability index', 1.5),
  ('A21L', 'protein stability index', 1.45),
  ('V14F', 'protein stability index', 1.92),
  ('P17V', 'protein stability index', 1.46),
  ('E18L', 'protein stability index', 1.58),
  ('A21H', 'protein stability index', 2.77),
  ('I10V', 'protein stability index', 2.36),
  ('I10R', 'protein stability index', 2.17),
  ('C19P', 'protein stability index', 1.94),
  ('V20M', 'protein stability index', 1.79),
  ('Y13G', 'protein stability index', 3.18),
  ('H15W', 'protein stability index', 1.85),
  ('E18P', 'protein stability index', 2.1),
  ('P4I', 'protein stability index', 2.08),
  ('P17F', 'protein stability index', 2.01),
  ('D16Y', 'protein stability index', 2.26);
